system: Plasmodium berghei; assay: Screen against P. berghei liver stage (PbLuc), transformed with Luciferase, at 10uM; type: functional, HepG2; conditions: tested at 10 uM
Among all 69,000 compounds or so, about 8,600 (12%) showed an effect of 50% or more. For the sample, strong results were picked, then their nearest neighbours and some compounds at random.
So basically, the class depends on measured INHIBITION, and the ranges are Low = under 10%, Medium = from 10% up to 40%, High = 40% and over

1. CC(O)CN1CCN(C(=O)c2cc3ccccc3[nH]c2=O)CC1 (stereo unspecified); Medium
2. CN1CCC(CCNC(=O)N2CCN(Cc3ccon3)CC2)CC1; Medium
3. COCCO[C@H]1CCN(Cc2cnn(C)c2)[C@H]1Cc1cccnc1; Low

**Q:** Band assignment needed for CC(C)c1noc(-c2ccc(NC(=O)NCC(O)C(C)C)cc2)n1 (stereo unspecified) please.
**A:** Low

**Q:** Band assignment needed for CC(C)c1nccn1C1CCCN(C(=O)c2cc(C(N)=O)cs2)C1 (stereo unspecified) please.
**A:** Medium

**Q:** Band assignment needed for COc1ccccc1C1Cn2c(C)cnc2CN1Cc1c[nH]nc1C (stereo unspecified) please.
**A:** Low

**Q:** Band assignment needed for CCC1CCCCN1CCNC(=O)N1CCN(Cc2ccon2)CC1 (stereo unspecified) please.
**A:** High

**Q:** Band assignment needed for COCCOc1cccc(CNC(=O)CN2CCN(C)CC2C)c1 (stereo unspecified) please.
**A:** Medium
